Measured values drawn from the supplement of paper PMC8728848 for this set.

Molecular target: Gal(b1-4)GlcNAc(b1-2)Man
Assay: glycan array binding signal (z-score within array); higher = stronger binding
Conditions: glycan notation: IUPAC condensed, linker removed
Shown is part of a subset that was picked to be rich in the strongest signals.
Class field: derived from glycan array binding signal (z-score); ranges low group (below -0.1), middle group (-0.1 to below 1), high group (1 or more)

LBL-152 (Laetiporus bicolor), B0D650 (protein) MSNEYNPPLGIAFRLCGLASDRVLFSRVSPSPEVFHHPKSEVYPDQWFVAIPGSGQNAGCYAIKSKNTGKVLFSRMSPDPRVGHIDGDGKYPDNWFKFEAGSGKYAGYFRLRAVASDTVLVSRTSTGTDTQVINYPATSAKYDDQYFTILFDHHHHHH ... low group

Ask: The entry to classify is ECL (Erythrina cristagalli), Q6YD91 (protein) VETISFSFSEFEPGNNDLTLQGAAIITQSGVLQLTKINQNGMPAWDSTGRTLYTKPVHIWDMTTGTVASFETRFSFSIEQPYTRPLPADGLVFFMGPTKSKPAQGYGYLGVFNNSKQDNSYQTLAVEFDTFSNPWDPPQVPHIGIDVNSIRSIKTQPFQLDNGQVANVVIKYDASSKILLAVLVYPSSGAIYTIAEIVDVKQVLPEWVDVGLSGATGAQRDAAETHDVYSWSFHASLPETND ; which class holds it?
Reply: low group

Ask: Given CD72 ectodomain (Homo sapiens), P21854 (protein) RYLQVSQQLQQTNRVLEVTNSSLRQQLRLKITQLGQSAEDLQGSRRELAQSQEALQVEQRAHQAAEGQLQACQADRQKTKETLQSEEQQRRALEQKLSNMENRLKPFFTCGSADTCCPSGWIMHQKSCFYISLTSKNWQESQKQCETLSSKLATFSEIYPQSHSYYFLNSLLPNGGSGNSYWTGLSSNKDWKLTDDTQRTRTYAQSSKCNKVHKTWSWWTLESESCRSSLPYICEMTAFRFPD , name the class its glycan array binding signal (z-score) places it in.
Reply: middle group

Ask: Sort into band: SP15308F-bth-333-19-333 (Bacteroides thetaiotaomicron) (protein) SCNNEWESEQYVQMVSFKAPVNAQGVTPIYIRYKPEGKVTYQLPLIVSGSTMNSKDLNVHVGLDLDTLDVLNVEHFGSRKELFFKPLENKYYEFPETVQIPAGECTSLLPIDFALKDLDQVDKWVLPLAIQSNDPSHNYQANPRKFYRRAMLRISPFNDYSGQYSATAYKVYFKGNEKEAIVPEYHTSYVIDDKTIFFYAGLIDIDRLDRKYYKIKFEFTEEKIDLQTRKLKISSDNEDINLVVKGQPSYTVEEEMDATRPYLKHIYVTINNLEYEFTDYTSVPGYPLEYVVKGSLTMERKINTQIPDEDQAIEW
Reply: high group

Ask: Category of LlpB (Pseudomonas fluorescens) (protein) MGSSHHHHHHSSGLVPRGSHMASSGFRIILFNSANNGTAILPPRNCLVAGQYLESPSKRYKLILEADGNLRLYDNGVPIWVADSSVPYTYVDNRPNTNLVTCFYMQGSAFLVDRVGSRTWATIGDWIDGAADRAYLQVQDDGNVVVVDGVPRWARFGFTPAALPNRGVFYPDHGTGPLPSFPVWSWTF , please.
Reply: high group

Ask: Input EUL D1A second (Oryza sativa) (protein) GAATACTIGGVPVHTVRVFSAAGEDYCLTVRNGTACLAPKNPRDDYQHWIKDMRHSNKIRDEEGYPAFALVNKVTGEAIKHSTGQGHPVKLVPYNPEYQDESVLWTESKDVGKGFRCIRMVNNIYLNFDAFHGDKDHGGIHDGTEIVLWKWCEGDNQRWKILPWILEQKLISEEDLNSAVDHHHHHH ; output its category
Reply: high group

Ask: Which glycan array binding signal (z-score) category applies to Mermaid2 (Stilbonema majum) (protein) MGSSHHHHHHSSGLVPRGSHMAASGWLRSPQGTVVKLYRRSLSWSKADEFCKDVDGRLVVDRTADMHLFLIKNVLKEKKSRVWVGLRRTAPHSRTWIWSDGTRQNEDDLNTNLWLRDEPNDAAGEEECALFMYSPWEKAWGLNDYLCRGGCRSYQFICEKGIR here?
Reply: high group
